assay: self-splicing fitness, log relative to wild type (ln ratio); higher = more splicing; Tetrahymena group I intron in knt gene, E. coli kanamycin selection, DiMSum; sequences stand for … in CUCUCU…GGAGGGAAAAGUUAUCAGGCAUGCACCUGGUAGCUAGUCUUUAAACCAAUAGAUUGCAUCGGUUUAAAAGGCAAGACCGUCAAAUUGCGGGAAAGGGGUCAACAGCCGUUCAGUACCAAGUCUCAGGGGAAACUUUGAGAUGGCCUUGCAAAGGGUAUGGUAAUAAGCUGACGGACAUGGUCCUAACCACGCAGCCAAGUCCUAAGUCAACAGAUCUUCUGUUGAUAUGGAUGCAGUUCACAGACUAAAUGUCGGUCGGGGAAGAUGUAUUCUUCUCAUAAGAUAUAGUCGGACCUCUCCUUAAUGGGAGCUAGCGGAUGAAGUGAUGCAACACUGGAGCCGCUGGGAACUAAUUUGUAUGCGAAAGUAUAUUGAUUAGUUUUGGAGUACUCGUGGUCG; conditions: 37 °C;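 also: selection with 25 µg/mL kanamycin versus none on LB agar overnight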
measurementName: self-splicing fitness (ln)

Worked cases, self-splicing fitness (ln) given:
[
  {
    "sequenceInput": "CUGUAGCAAUAUUACGGCAG",
    "measurementName": "self-splicing fitness (ln)",
    "testValue": -1.32
  },
  {
    "sequenceInput": "GUAAAGCAAUAUUACGGACA",
    "measurementName": "self-splicing fitness (ln)",
    "testValue": 0.623
  },
  {
    "sequenceInput": "CAACAGCAAUAUUACGGGGU",
    "measurementName": "self-splicing fitness (ln)",
    "testValue": -2.79
  },
  {
    "sequenceInput": "UAACAGCAAUAUUACGCGAG",
    "measurementName": "self-splicing fitness (ln)",
    "testValue": -0.508
  },
  {
    "sequenceInput": "UAAGAGCAAUAUUACGCCCA",
    "measurementName": "self-splicing fitness (ln)",
    "testValue": -2.09
  },
  {
    "sequenceInput": "UGGAAGCAAUAUUACGUAUC",
    "measurementName": "self-splicing fitness (ln)",
    "testValue": -2.28
  }
]

Batch: self-splicing fitness (ln) for all items listed.
1. AGUAAGCAAUAUUACGAUCG
2. ACUGAGCAAUAUUACGUCCG
3. GACCAGCAAUAUUACGCUAA
4. UCGAAGCAAUAUUACGCGCU
5. UGAAAGCAAUAUUACGCUCG
6. GACGAGCAAUAUUACGUUAA

// result
[-0.248, -1.58, 0.196, -0.209, 0.141, -2.79]

* * *

assay: self-splicing fitness, log relative to wild type (ln ratio); higher = more splicing; Tetrahymena group I intron in knt gene, E. coli kanamycin selection, DiMSum; sequences stand for … in CUCUCU…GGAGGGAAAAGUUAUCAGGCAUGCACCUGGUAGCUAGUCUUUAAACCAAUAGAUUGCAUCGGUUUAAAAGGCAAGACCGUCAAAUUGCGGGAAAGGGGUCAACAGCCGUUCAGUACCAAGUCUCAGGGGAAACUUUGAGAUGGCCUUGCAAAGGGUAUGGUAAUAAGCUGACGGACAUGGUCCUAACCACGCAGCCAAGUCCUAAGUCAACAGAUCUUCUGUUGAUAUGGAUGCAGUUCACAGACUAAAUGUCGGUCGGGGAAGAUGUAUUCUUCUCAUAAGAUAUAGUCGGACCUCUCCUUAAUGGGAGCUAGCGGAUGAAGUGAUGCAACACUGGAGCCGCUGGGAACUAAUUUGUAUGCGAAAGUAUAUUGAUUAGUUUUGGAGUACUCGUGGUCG; settings: 37 °C
For each entry below, report its self-splicing fitness (ln) value.

// known answers, use as guide
[
  {
    "sequenceInput": "CUGGAGCAAUAUUACGUACG",
    "testValue": 0.504
  },
  {
    "sequenceInput": "GAGCAGCAAUAUUACGAUAG",
    "testValue": -3.14
  },
  {
    "sequenceInput": "CGGAAGCAAUAUUACGUCGG",
    "testValue": 0.0281
  },
  {
    "sequenceInput": "CGGCAGCAAUAUUACGACUA",
    "testValue": 0.0629
  },
  {
    "sequenceInput": "AUGUAGCAAUAUUACGGUAA",
    "testValue": -1.36
  },
  {
    "sequenceInput": "AAUUAGCAAUAUUACGGGCA",
    "testValue": 0.186
  }
]

So for UGACAGCAAUAUUACGGCUG , the logged self-splicing fitness (ln) turned out to be -0.623
